- study.system: G protein-coupled receptor GPR35 (Rattus norvegicus, UniProt Q33BM1)
- Sequence (Q33BM1 whole entry, the tested form may be a part): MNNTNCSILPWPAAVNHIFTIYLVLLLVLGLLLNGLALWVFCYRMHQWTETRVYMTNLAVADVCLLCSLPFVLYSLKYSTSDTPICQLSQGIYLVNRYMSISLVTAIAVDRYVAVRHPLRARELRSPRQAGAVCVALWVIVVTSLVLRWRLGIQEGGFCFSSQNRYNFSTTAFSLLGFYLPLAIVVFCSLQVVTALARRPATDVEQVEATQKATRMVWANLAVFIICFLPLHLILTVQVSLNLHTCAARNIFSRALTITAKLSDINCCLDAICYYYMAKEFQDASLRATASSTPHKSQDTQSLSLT
- method: Agonist activity at recombinant rat N-terminal FLAG/eYFP-fused GPR35 expressed in HEK293 cells assessed as induction of beta-arrestin recruitment by BRET assay
reported.property: pEC50
Remember, pEC50 is on a log scale: it is -log10 of the molar concentration.

Exam item: Quick one: pEC50 for Cc1cccn2c(=O)c(-c3nnn[nH]3)cnc12 ?
Marked response: 7.02

====

- study.system: G-protein coupled receptor 35 (Homo sapiens, UniProt Q9HC97)
- Sequence (Q9HC97 whole entry): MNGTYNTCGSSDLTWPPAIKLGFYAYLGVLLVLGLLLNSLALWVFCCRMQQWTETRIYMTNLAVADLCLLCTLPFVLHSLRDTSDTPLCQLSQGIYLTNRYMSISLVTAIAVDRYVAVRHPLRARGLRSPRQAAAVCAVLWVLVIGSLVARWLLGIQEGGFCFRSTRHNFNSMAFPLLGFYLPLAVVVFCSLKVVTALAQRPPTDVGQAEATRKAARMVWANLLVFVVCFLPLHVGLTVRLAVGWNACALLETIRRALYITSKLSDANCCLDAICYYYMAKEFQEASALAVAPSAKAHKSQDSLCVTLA
- method: Desensitization of GPR35 in human HT-29 cells assessed as inhibition of zaprinast-induced dynamic mass redistribution pretreated for 1 hr followed by zaprinast stimulation
reported.property: pIC50
On this scale, pIC50 is minus log10 of a concentration expressed in M (mol/L).

Example entries and their recorded answers appear below.
- molecule: "COc1ccc(C(=O)Nc2ccccc2-c2nn[nH]n2)cc1"
  measured.number: 6.55
- molecule: "O=C(Nc1cc(Br)ccc1-c1nnn[nH]1)c1cccs1"
  measured.number: 6.59
- molecule: "COc1ccc(C(=O)Nc2ccc(Br)cc2-c2nnn[nH]2)cc1"
  measured.number: 6.96

Exam item: For O=C(Nc1cc(Br)ccc1-c1nnn[nH]1)c1ccc(Cl)cc1 , what is its reported pIC50?
Marked response: 6.68

Exam item: Now try Nc1ccc(Br)cc1-c1nnn[nH]1 .
Marked response: 4.12

Exam item: Same read-out for COc1ccc(C(=O)Nc2cc(F)ccc2-c2nnn[nH]2)cc1 ?
Marked response: 7.09

The reported measurements were obtained from ChEMBL document CHEMBL4145590.
